B1: WEE1 (parent)
chain: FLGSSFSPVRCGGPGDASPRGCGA

variants of: B1; assay: protein stability index of a GFP-peptide fusion (GPS, HEK-293T) (PSI 1-6); higher = more stable; details: c terminus: a fixed tail appended;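 also: lentivirally expressed fusions sorted by FACS into six bins by GFP to DsRed ratio, PSI derived from sequencing read proportions per bin multiplied by bin number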
Quick list: protein stability index per entry.
QUANTITY KIND: protein stability index

# MUT, QUANTITY KIND, ENDPOINT RESULT
rows = [
    ("R10S", "protein stability index", 1.8),
    ("P19L", "protein stability index", 2.31),
    ("R10M", "protein stability index", 1.64),
    ("G15N", "protein stability index", 1.77),
    ("S18P", "protein stability index", 2.89),
    ("C22V", "protein stability index", 1.73),
    ("C22Q", "protein stability index", 1.73),
    ("L2D", "protein stability index", 3.37),
    ("G3S", "protein stability index", 1.92),
    ("G12F", "protein stability index", 1.43),
    ("R20S", "protein stability index", 1.55),
    ("G3E", "protein stability index", 2.58),
    ("D16H", "protein stability index", 2.27),
    ("P14M", "protein stability index", 1.17),
    ("G23H", "protein stability index", 3.02),
    ("F6T", "protein stability index", 2.76),
    ("G21E", "protein stability index", 2.06),
    ("R10K", "protein stability index", 2.68),
    ("C22I", "protein stability index", 1.58),
    ("L2R", "protein stability index", 3.13),
    ("G15D", "protein stability index", 2.06),
    ("G21F", "protein stability index", 1.64),
    ("G3M", "protein stability index", 1.68),
    ("G13Y", "protein stability index", 1.63),
    ("A17G", "protein stability index", 2.07),
    ("F6Y", "protein stability index", 1.81),
    ("V9H", "protein stability index", 2.22),
    ("F1R", "protein stability index", 2.46),
    ("P19Y", "protein stability index", 1.12),
    ("P8I", "protein stability index", 1.23),
    ("F1D", "protein stability index", 2.95),
    ("G21N", "protein stability index", 1.55),
    ("D16I", "protein stability index", 1.61),
    ("A17L", "protein stability index", 1.78),
    ("D16A", "protein stability index", 1.26),
    ("G21A", "protein stability index", 1.92),
    ("S18A", "protein stability index", 1.71),
    ("S7P", "protein stability index", 1.36),
    ("G12N", "protein stability index", 2.56),
    ("G3I", "protein stability index", 2.82),
    ("V9C", "protein stability index", 3.15),
    ("R20E", "protein stability index", 2.28),
    ("S18R", "protein stability index", 1.68),
    ("D16Q", "protein stability index", 1.86),
    ("L2W", "protein stability index", 2.35),
    ("A24E", "protein stability index", 1.88),
    ("A24M", "protein stability index", 1.02),
    ("G21L", "protein stability index", 1.95),
    ("S7C", "protein stability index", 2.41),
    ("P19I", "protein stability index", 1.57),
    ("A17C", "protein stability index", 2.06),
    ("V9N", "protein stability index", 2.51),
    ("S18F", "protein stability index", 1.86),
    ("G12L", "protein stability index", 2.44),
    ("L2H", "protein stability index", 2.02),
    ("D16R", "protein stability index", 2.06),
    ("D16L", "protein stability index", 1.88),
    ("F1H", "protein stability index", 3.26),
    ("G23T", "protein stability index", 1.7),
    ("R10N", "protein stability index", 2.33),
    ("G3A", "protein stability index", 2.19),
    ("S4F", "protein stability index", 1.93),
    ("F6N", "protein stability index", 3.06),
    ("D16C", "protein stability index", 2.57),
    ("G23E", "protein stability index", 1.75),
    ("R10H", "protein stability index", 2.63),
    ("R10P", "protein stability index", 2.04),
    ("S18Q", "protein stability index", 1.96),
    ("G3P", "protein stability index", 2.12),
    ("P19F", "protein stability index", 2.62),
    ("P8M", "protein stability index", 1.85),
    ("C22A", "protein stability index", 1.88),
    ("R10Y", "protein stability index", 1.07),
    ("P8R", "protein stability index", 1.48),
    ("G12Q", "protein stability index", 2.07),
    ("F1Q", "protein stability index", 3.36),
    ("D16W", "protein stability index", 1.74),
    ("P8Q", "protein stability index", 1.64),
    ("D16F", "protein stability index", 2.35),
    ("C22S", "protein stability index", 2.73),
    ("P14G", "protein stability index", 2.04),
    ("C11E", "protein stability index", 2.39),
    ("G21K", "protein stability index", 1.81),
    ("G15W", "protein stability index", 3.02),
    ("S18H", "protein stability index", 1.83),
    ("A17I", "protein stability index", 1.87),
    ("F6K", "protein stability index", 3),
    ("P14C", "protein stability index", 2.18),
    ("R10A", "protein stability index", 1.83),
    ("P19S", "protein stability index", 1.8),
    ("R20K", "protein stability index", 1.62),
]
